system: intestinal alkaline phosphatase [Mus musculus]; assay: mouse intestinal phosphatase enzyme inhibition – biochemical, luminescence, uHTS, primary screen (AID 2806); settings: purified mouse IAP, CDP-Star luminescence, 30 min; at 10 µM; stronger effect = higher value;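 further: plate controls were DMSO with enzyme for no effect and no enzyme wells for full effect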
The campaign covered roughly 330,000 compounds. About 660 (0.2%) were called active. This is one part of a sample in which actives are shown more often than they occur.
experimentalEndpoint: inhibition (%)
The answer is to be given in %; state only the numeric part.

| compound | measuredOn | inhibition / % |
| --- | --- | --- |
| CCOC(=O)c1cc(-c2ccccc2C)n(Cc2cc(C)no2)n1 | intestinal alkaline phosphatase [Mus musculus] | -6.2 |
| Cc1nnc(SCC(=O)Nc2ncc3c(n2)CC(C)(C)CC3=O)s1 | intestinal alkaline phosphatase [Mus musculus] | 8.5 |
| O=C(COc1cccc2ccccc12)Nc1cc(S(=O)(=O)N2CCOCC2)ccc1N1CCOCC1 | intestinal alkaline phosphatase [Mus musculus] | 4 |
| CC(C)(C)NC(=O)NC(=O)COC(=O)Cn1c(C(F)(F)F)nc2ccccc21 | intestinal alkaline phosphatase [Mus musculus] | 3.3 |
| Cc1ccccc1CN1C[C@@H]2C[C@@H](c3ccc4nsnc4c3)N3CCC[C@@]23C1=O | intestinal alkaline phosphatase [Mus musculus] | 4 |
| CC[C@]1(O)C[C@@H]2CN(CCc3c([nH]c4ccccc34)[C@@](C(=O)OC)(c3cc4c(cc3OC)N(C)[C@H]3[C@@](O)(C(=O)OC)[C@H](OC(C)=O)[C@]5(CC)C=CCN6CC[C@]43[C@@H]65)C2)C1 | intestinal alkaline phosphatase [Mus musculus] | -16.7 |
| CCN(CC)C(=O)CS(=O)CC(=O)Nc1cc(OCCOC)c(Cl)cc1Cl (stereo not given) | intestinal alkaline phosphatase [Mus musculus] | -1.1 |
| CCn1c(CSc2nncn2-c2ccc(OC)cc2)nc2cc(S(=O)(=O)N(C)C)ccc21 | intestinal alkaline phosphatase [Mus musculus] | 6.6 |
| O=[N+]([O-])/C(N=Nc1ccccc1)=N\Nc1ccccc1 | intestinal alkaline phosphatase [Mus musculus] | -0.1 |
| Cc1nn(C)c(C(=O)NNC(=S)NC2CCCCC2)c1Cl | intestinal alkaline phosphatase [Mus musculus] | 16.2 |

Ask: Please report inhibition for the following compound: CC(/C=C/C1(O)C(C)CC(=O)CC1(C)C)OC1OC(CO)C(O)C(O)C1O (stereo not given)
Result: 41.9

Ask: Please report inhibition for the following compound: `CC(=O)Nc1c2c(nn1-c1cccc(C)c1)CSC2`
Result: 9.8

Ask: Please report inhibition for the following compound: C=CC1C(OC2OC(CO)C(O)C(O)C2O)OC=C(C(=O)OC)C1CC1CC(=O)CC(CC(=O)CCc2ccc(O)cc2)O1 (stereo not given)
Result: 6.5

Ask: Please report inhibition for the following compound: `CNS(=O)(=O)c1ccc(C(=O)NCC(=O)NCCc2ccc3c(c2)OCCO3)cc1`
Result: -6.6

Ask: Please report inhibition for the following compound: Cc1nc(C(=O)N2CCCC(C(=O)c3ccc(Cl)cc3)C2)cs1 (stereo not given)
Result: 0.3
